Biological target: T1, HCoV229E spike protein (HCoV-229E, UniProt P15423 17-1103)
T1 chain: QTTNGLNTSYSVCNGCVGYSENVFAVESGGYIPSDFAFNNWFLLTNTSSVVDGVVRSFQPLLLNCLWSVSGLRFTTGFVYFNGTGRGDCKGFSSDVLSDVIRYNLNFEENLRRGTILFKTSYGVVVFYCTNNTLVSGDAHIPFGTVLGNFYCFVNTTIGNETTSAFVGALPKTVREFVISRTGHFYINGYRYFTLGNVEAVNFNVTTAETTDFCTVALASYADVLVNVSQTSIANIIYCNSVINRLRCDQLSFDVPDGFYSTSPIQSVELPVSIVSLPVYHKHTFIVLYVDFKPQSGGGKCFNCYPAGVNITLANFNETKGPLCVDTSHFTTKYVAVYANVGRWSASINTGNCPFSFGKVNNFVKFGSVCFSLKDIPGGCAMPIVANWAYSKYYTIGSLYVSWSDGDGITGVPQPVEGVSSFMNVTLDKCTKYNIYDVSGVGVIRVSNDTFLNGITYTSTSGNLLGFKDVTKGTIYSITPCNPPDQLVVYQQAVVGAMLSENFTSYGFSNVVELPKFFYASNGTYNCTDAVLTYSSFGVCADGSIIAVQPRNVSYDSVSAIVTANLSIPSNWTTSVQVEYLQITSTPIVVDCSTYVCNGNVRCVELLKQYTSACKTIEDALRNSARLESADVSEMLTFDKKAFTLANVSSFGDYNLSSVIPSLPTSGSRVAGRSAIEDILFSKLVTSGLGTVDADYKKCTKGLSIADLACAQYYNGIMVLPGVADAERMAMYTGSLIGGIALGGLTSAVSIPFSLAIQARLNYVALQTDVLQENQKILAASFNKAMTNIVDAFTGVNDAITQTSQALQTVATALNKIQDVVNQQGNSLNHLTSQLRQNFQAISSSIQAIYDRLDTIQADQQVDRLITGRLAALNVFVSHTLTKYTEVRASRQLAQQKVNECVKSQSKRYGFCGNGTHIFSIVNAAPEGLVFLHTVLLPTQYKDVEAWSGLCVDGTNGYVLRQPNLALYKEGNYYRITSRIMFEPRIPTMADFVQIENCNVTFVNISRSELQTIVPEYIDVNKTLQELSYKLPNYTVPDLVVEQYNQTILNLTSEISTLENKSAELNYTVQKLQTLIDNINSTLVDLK
Assay: ELISA
pEC50: −log10 of the molar value.
Reported pEC50 values are given for each entry in this list.

>  <binder>
8-A17-A (antibody, V domains shown) VH: QVQLKESGPGLVAPSQSLSITCTVSGFSLTSYAISWVRQPPGKGLEWLGVVWPGGGTNYNSALKSRLSINKDNSKSQVFLKMNSLQTDDTGRYYCARTGYHFDYWGQGTTLTVSS VL: QIVLTQSPAIMSASPGEKVTMTCSVSSSVSYMHWYQQKSGTSPKRWIYDTSKLASGVPARFSGSGSGTSYSLTISSMEAEDAATYYCQQWSSNPPMYTFGGGTKLEIK

>  <pEC50>
11.00

$$$$
>  <binder>
6-O12-A (antibody, V domains shown) VH: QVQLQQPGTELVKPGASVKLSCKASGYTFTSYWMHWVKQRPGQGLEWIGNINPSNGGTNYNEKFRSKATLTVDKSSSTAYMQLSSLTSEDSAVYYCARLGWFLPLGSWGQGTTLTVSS VL: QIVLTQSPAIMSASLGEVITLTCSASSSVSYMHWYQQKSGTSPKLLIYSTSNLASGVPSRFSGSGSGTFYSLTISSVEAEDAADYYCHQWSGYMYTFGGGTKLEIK

>  <pEC50>
9.82

$$$$
>  <binder>
9-F6-A (antibody, V domains shown) VH: EVQLQQSGPELVKPGASVKMSCKASGYTFTSYIMHWVKQKPGQGLEWIGYILPYNDGTKYNEKFKGKATLTSDKSSSTAYMELRSLTSEDSAVYYCARWGYSNFLDSWGQGTTLTVSS VL: DIQMTQTTSSLSASLGDRVTISCRASQDINNYLNWYQQKPDGTVKLLIYYTSRLHSGVPSRFSGSGSGTDYSLTIRNLEQEDIATYFCQQGNTLPPTFGGGTKLEIK

>  <pEC50>
10.52

$$$$
